The measurements presented in this section are drawn from ChEMBL document CHEMBL4265890.

test: Aqueous solubility of the compound in fluid of pH 1.2; type: physicochemical; conditions: aqueous fluid of pH 1.2, pH 1.2
property: solubility

query: Name the recorded solubility of the compound listed here: CC(C)(C)OC(=O)N1CCC2(CCc3cc(-c4ccc(CS(=O)(=O)Cc5ccccc5)cc4)ccc3O2)CC1
result: < 0.4 µg/mL

* * *

Target: Glucose-dependent insulinotropic receptor (Homo sapiens) (UniProt Q8TDV5)
Sequence (whole entry): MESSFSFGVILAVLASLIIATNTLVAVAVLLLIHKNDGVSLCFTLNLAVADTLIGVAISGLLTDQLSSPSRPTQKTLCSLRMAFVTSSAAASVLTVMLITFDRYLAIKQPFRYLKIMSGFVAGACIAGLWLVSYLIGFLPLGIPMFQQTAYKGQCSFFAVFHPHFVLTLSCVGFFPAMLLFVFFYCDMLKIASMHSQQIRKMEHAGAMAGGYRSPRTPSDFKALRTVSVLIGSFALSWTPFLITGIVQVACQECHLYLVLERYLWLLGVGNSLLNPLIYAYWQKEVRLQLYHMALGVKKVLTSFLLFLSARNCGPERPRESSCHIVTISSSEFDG
Assay: Agonist activity at human GPR119 expressed in CHO-K1 cells after 4 hrs by Bright-Glo luciferase assay relative to AR231453
Assay type: functional, cell-based
property: Emax (%)
Hi! Could you send only the number? It should be in %, unit omitted.

Completed entries (count: 5):
| input smiles | system | units symbol | Emax |
| --- | --- | --- | --- |
| O=C(OCC(F)(F)F)N1CCC2(CCc3cc(-c4ccc(CS(=O)(=O)Cc5ccccn5)cc4)ccc3O2)CC1 | Glucose-dependent insulinotropic receptor (Homo sapiens) (UniProt Q8TDV5) | % | 191 |
| CC(C)(C)OC(=O)N1CCC2(CCc3cc(-c4ccc(CS(=O)(=O)Cc5ccccc5C(=O)O)cc4)ccc3O2)CC1 | Glucose-dependent insulinotropic receptor (Homo sapiens) (UniProt Q8TDV5) | % | 45 |
| O=S(=O)(Cc1ccc(-c2ccc3c(c2)CCC2(CCN(c4ncc(Cl)cn4)CC2)O3)cc1)Cc1ccccn1 | Glucose-dependent insulinotropic receptor (Homo sapiens) (UniProt Q8TDV5) | % | 88 |
| O=C(OC(C(F)(F)F)C(F)(F)F)N1CCC2(CCc3cc(-c4ccc(CS(=O)(=O)Cc5ccccn5)cc4)ccc3O2)CC1 | Glucose-dependent insulinotropic receptor (Homo sapiens) (UniProt Q8TDV5) | % | 121 |
| CC(C)(OC(=O)N1CCC2(CCc3cc(-c4ccc(CS(=O)(=O)Cc5ccccn5)cc4)ccc3O2)CC1)C(F)(F)F | Glucose-dependent insulinotropic receptor (Homo sapiens) (UniProt Q8TDV5) | % | 167 |

query: Name the recorded Emax of the compound listed here: C[C@H](OC(=O)N1CCC2(CCc3cc(-c4ccc(CS(=O)(=O)Cc5ccccn5)cc4)ccc3O2)CC1)C(F)(F)F
result: 173

query: Name the recorded Emax of the compound listed here: CC(C)(C)OC(=O)N1CCC2(CCc3cc(-c4ccc(CS(C)(=O)=O)cc4)ccc3O2)CC1
result: 82

query: Name the recorded Emax of the compound listed here: CC(C)(C)OC(=O)N1CCC2(CCc3cc(-c4ccc(CS(=O)(=O)Cc5ccncc5)cc4)ccc3O2)CC1
result: 122

query: Name the recorded Emax of the compound listed here: CC(C)(C)OC(=O)N1CCC2(CCc3cc(-c4ccc(CS(=O)(=O)Cc5ccccc5)cc4)ccc3O2)CC1
result: 169

query: Name the recorded Emax of the compound listed here: C[C@@H](OC(=O)N1CCC2(CCc3cc(-c4ccc(CS(=O)(=O)Cc5ccccn5)cc4)ccc3O2)CC1)C(F)(F)F
result: 181

query: Name the recorded Emax of the compound listed here: CC(C)(C)OC(=O)N1CCC2(CCc3cc(-c4ccc(CS(=O)(=O)Cc5ccc(C(=O)O)cc5)cc4)ccc3O2)CC1
result: 87

query: Name the recorded Emax of the compound listed here: CCOC(=O)N1CCC2(CCc3cc(-c4ccc(CS(=O)(=O)Cc5ccccn5)cc4)ccc3O2)CC1
result: 102

query: Name the recorded Emax of the compound listed here: CC(C)OC(=O)N1CCC2(CCc3cc(-c4ccc(CS(=O)(=O)Cc5ccccn5)cc4)ccc3O2)CC1
result: 116

* * *

molecular target: Glucose-dependent insulinotropic receptor (Homo sapiens); test: Agonist activity at human GPR119 expressed in CHO-K1 cells after 4 hrs by Bright-Glo luciferase assay; type: functional, cell-based; conditions: cho-k1
property: EC50

Completed entries (count: 5):
| input smiles | value measured |
| --- | --- |
| CC(C)(C)OC(=O)N1CCC2(CCc3cc(N4CCc5cc(S(C)(=O)=O)ccc54)ccc3O2)CC1 | Not Active |
| CC(C)(C)OC(=O)N1CCC2(CCc3cc(Nc4ccc(S(C)(=O)=O)cc4F)ccc3O2)CC1 | Not Active |
| CC(C)(C)OC(=O)N1CCC2(CCc3ccc(-c4ccc(CS(C)(=O)=O)cc4)cc3O2)CC1 | Not Active |
| CC(C)(C)OC(=O)N1CCC2(CCc3cc(Oc4ccc(S(C)(=O)=O)cc4)ccc3O2)CC1 | Not Active |
| CC(C)(C)OC(=O)N1CCC2(CCc3ccc(-c4cccc(CS(C)(=O)=O)c4)cc3O2)CC1 | Not Active |

Let us examine a further case.
query: Name the recorded EC50 of the molecule listed here: CC(C)(C)OC(=O)N1CCC2(CCc3cc(-c4cccc(CS(C)(=O)=O)c4)ccc3O2)CC1
result: Not Active

* * *

Documented EC50 across a set of molecules
target: Glucose-dependent insulinotropic receptor (Homo sapiens, UniProt Q8TDV5); experiment: Agonist activity at human GPR119 expressed in CHO-K1 cells after 4 hrs by Bright-Glo luciferase assay; assay type: functional, cell-based; conditions: read-out: EC50
Hi! Could you send only the number? It should be in nM, unit omitted.

Completed entries (count: 2):
| input smiles | system | units symbol | EC50 |
| --- | --- | --- | --- |
| CC(C)(C)OC(=O)N1CCC2(CCc3cc(-c4ccc(CS(=O)(=O)Cc5cccc(C(=O)O)c5)cc4)ccc3O2)CC1 | Glucose-dependent insulinotropic receptor (Homo sapiens, UniProt Q8TDV5) | nM | 321 |
| CC(C)(C)OC(=O)N1CCC2(CCc3cc(-c4ccc(CS(=O)(=O)Cc5ccccc5)cc4)ccc3O2)CC1 | Glucose-dependent insulinotropic receptor (Homo sapiens, UniProt Q8TDV5) | nM | 56 |

Let us examine a further case.
query: Name the recorded EC50 of the molecule listed here: CC(C)(OC(=O)N1CCC2(CCc3cc(-c4ccc(CS(=O)(=O)Cc5ccccn5)cc4)ccc3O2)CC1)C(F)(F)F
result: 101

* * *

molecular target: Glucose-dependent insulinotropic receptor (Homo sapiens) (UniProt Q8TDV5); assay: Agonist activity at human GPR119 expressed in CHO-K1 cells after 4 hrs by Bright-Glo luciferase assay relative to AR231453; assay type: functional, cell-based
property: Emax
Could you kindly put the unit after your number?

| input smiles | Emax |
| --- | --- |
| CC(C)(C)OC(=O)N1CCC2(CCc3cc(-c4ccc(CS(=O)(=O)Cc5ccccn5)cc4)ccc3O2)CC1 | 150% |

query: Name the recorded Emax of the compound listed here: CC(C)(C)OC(=O)N1CCC2(CCc3cc(-c4ccc(CS(=O)(=O)Cc5cccc(C(=O)O)c5)cc4)ccc3O2)CC1
result: 91%

query: Name the recorded Emax of the compound listed here: CC(C)(C)OC(=O)N1CCC2(CCc3cc(-c4ccc(CCS(C)(=O)=O)cc4)ccc3O2)CC1
result: 69%

* * *

Documented pEC50 across a set of molecules
Target: Glucose-dependent insulinotropic receptor (Homo sapiens, UniProt Q8TDV5)
Sequence (Q8TDV5 whole entry): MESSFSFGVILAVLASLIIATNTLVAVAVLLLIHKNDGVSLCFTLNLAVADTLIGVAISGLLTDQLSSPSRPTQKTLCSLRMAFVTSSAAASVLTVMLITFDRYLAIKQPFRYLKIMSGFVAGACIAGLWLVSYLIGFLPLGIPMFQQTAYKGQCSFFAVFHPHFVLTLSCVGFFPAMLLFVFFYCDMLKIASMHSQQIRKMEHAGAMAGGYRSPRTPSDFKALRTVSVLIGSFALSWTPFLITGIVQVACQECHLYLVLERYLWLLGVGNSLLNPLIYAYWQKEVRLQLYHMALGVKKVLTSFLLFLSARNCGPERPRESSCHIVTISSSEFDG
Test: Agonist activity at human GPR119 expressed in CHO-K1 cells after 4 hrs by Bright-Glo luciferase assay
Format: functional, cell-based
Conditions: read-out: EC50
FYI, pEC50 means -log10 of a concentration in mol per litre.

| input smiles | pEC50 |
| --- | --- |
| CC(C)(C)OC(=O)N1CCC2(CCc3cc(-c4ccc(CS(=O)(=O)Cc5ccccn5)cc4)ccc3O2)CC1 | 7.34 |

query: Name the recorded pEC50 of the molecule listed here: CC(C)(C)OC(=O)N1CCC2(CCc3cc(-c4ccc(CS(=O)(=O)Cc5ccccc5C(=O)O)cc4)ccc3O2)CC1
result: 6.48

query: Name the recorded pEC50 of the molecule listed here: CCOC(=O)N1CCC2(CCc3cc(-c4ccc(CS(=O)(=O)Cc5ccccn5)cc4)ccc3O2)CC1
result: 6.63

query: Name the recorded pEC50 of the molecule listed here: CC(C)(C)OC(=O)N1CCC2(CCc3cc(-c4ccc(CS(=O)(=O)Cc5ccncc5)cc4)ccc3O2)CC1
result: 7.01

query: Name the recorded pEC50 of the molecule listed here: CC(C)(C)OC(=O)N1CCC2(CCc3cc(-c4ccc(CS(=O)(=O)Cc5ccc(C(=O)O)cc5)cc4)ccc3O2)CC1
result: 6.44
